experiment: Plasma stability profiling Method #1 (MALDI-TOF, 35% plasma), rat plasma; type: in vitro ADME; settings: Table 14; method #1
Numbered stars: 1 amine (or outer) side, 2 acyl side, 3 side chain; on linkers, the order of the positions; unused ones are H or OH. Bridge positions count the residues as written; N and C are the ends. Square brackets hold non-standard residues; d marks the D form. Peptide text beside a SMILES is read from it. TBMB = c1c(C[*:1])cc(C[*:3])cc1C[*:2]; Dpg = CCCC(N)(CCC)C(=O)O; Aib = CC(C)(N)C(=O)O
Consider the following compounds; for each one, report its Observable in rat plasma, for days.
Record the value in days, omitting the unit from your answer.

Consider the compound CCCC1(CCC)NC(=O)[C@@H](NC(C)=O)CSCc2cc3cc(c2)CSC[C@H](NC(=O)[C@H](CCCNC(=N)N)NC(=O)[C@H](C)NC(=O)[C@@H]2CCCN2C(=O)[C@H](Cc2c[nH]c4ccccc24)NC1=O)C(=O)N[C@@H](CC(C)C)C(=O)N[C@@H](Cc1c[nH]cn1)C(=O)N[C@@H](CCC(N)=O)C(=O)N[C@@H](CC(=O)O)C(=O)N[C@@H](CC(C)C)C(=O)N[C@H](C(N)=O)CSC3 [Ac-(06-34-18) Dpg1] (Ac-C[Dpg]WPARCLHQDLC-NH2; linker 1-7-13 via TBMB) and give its measured Observable in rat plasma, for days. 2

Consider the compound CC(=O)N[C@H]1CSCc2cc3cc(c2)CSC[C@H](NC(=O)[C@H](CCCNC(=N)N)NC(=O)C(C)(C)NC(=O)[C@@H]2CCCN2C(=O)[C@H](Cc2c[nH]c4ccccc24)NC(=O)[C@H](CO)NC1=O)C(=O)N[C@@H](CC(C)C)C(=O)N[C@@H](Cc1c[nH]cn1)C(=O)N[C@@H](CCC(N)=O)C(=O)N[C@@H](CC(=O)O)C(=O)N[C@@H](CC(C)C)C(=O)N[C@H](C(N)=O)CSC3 [Ac-(06-34-18) Aib4] (Ac-CSWP[Aib]RCLHQDLC-NH2; linker 1-7-13 via TBMB) and give its measured Observable in rat plasma, for days. 7

* * *

Molecular target: human plasma Kallikrein (Homo sapiens)
Construct: purchased Stratech, UK
Sequence (P03952 20-638): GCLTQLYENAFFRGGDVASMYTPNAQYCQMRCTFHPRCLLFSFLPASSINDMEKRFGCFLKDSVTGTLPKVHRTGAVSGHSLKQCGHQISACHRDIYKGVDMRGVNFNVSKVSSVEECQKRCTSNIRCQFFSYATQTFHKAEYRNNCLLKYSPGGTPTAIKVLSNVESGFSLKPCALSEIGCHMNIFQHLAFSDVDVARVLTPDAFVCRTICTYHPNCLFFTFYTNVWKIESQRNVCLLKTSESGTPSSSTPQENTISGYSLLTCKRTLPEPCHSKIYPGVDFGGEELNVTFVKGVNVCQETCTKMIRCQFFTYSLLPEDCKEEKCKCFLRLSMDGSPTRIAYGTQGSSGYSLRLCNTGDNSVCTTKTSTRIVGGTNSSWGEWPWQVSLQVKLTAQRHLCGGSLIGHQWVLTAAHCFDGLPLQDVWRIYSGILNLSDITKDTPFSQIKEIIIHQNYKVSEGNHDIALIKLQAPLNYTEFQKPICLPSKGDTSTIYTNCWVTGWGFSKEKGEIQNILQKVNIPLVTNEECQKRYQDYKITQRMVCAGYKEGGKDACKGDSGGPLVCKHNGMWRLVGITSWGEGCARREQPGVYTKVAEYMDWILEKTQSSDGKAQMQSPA
Assay: Functional enzyme inhibition assay with fluorogenic substrate Z-PheArg-AMC, human plasma Kallikrein
Format: biochemical
Conditions: Table 3a, Alanine scan in Loop2; read-out: Ki
Method: Functional enzyme assays were conducted in 10 mM Tris HCl, 150 mM NaCl, 10 mM MgCl2, 1 mM CaCl2) and 1 mg/mL BSA (all Sigma UK) pH7.4 at 25° C. in solid black 96 well plates. […] Release of AMC was measured using a Pherastar FS (BMG Labtech), excitation 360 nm, emission 460 nm. The rate of the linear phase of the reaction, typically 5 to 45 minutes, was calculated in MARS data analysis software (BMG labtech). […]
Numbered stars: 1 amine (or outer) side, 2 acyl side, 3 side chain; on linkers, the order of the positions; unused ones are H or OH. Bridge positions count the residues as written; N and C are the ends. Peptide text beside a SMILES is read from it. TBMB = c1c(C[*:1])cc(C[*:3])cc1C[*:2]
Field 'label' (enum: 1.0 / 0.0). Set to 1.0 when Ki is strictly under 10 nM; else 0.0.

Record CC(=O)N[C@H]1CSCc2cc3cc(c2)CSC[C@H](NC(=O)[C@H](CCCNC(=N)N)NC(=O)[C@H](Cc2ccc(O)cc2)NC(=O)[C@@H]2CCCN2C(=O)[C@H](Cc2ccccc2)NC(=O)[C@H](CO)NC1=O)C(=O)N[C@@H](CC(C)C)C(=O)N[C@@H](Cc1c[nH]cn1)C(=O)N[C@@H](CCC(N)=O)C(=O)N[C@@H](C)C(=O)N[C@@H](CC(C)C)C(=O)N[C@H](C(N)=O)CSC3 [Ac-(06-34-18) Phe2 Tyr4 Ala9] (Ac-CSFPYRCLHQALC-NH2; linker 1-7-13 via TBMB) : is its Ki strictly below 10 nM? 1.0

Record CC(=O)N[C@H]1CSCc2cc3cc(c2)CSC[C@H](NC(=O)[C@H](CCCNC(=N)N)NC(=O)[C@H](Cc2ccc(O)cc2)NC(=O)[C@@H]2CCCN2C(=O)[C@H](Cc2ccccc2)NC(=O)[C@H](CO)NC1=O)C(=O)N[C@@H](CC(C)C)C(=O)N[C@@H](Cc1c[nH]cn1)C(=O)N[C@@H](C)C(=O)N[C@@H](CC(=O)O)C(=O)N[C@@H](CC(C)C)C(=O)N[C@H](C(N)=O)CSC3 [Ac-(06-34-18) Phe2 Tyr4 Ala8] (Ac-CSFPYRCLHADLC-NH2; linker 1-7-13 via TBMB) : is its Ki strictly below 10 nM? 1.0

Record CC(=O)N[C@H]1CSCc2cc3cc(c2)CSC[C@H](NC(=O)[C@H](CCCNC(=N)N)NC(=O)[C@H](Cc2ccc(O)cc2)NC(=O)[C@@H]2CCCN2C(=O)[C@H](Cc2ccccc2)NC(=O)[C@H](CO)NC1=O)C(=O)N[C@@H](CC(C)C)C(=O)N[C@@H](Cc1c[nH]cn1)C(=O)N[C@@H](CCC(N)=O)C(=O)N[C@@H](CC(=O)O)C(=O)N[C@@H](C)C(=O)N[C@H](C(N)=O)CSC3 [Ac-(06-34-18) Phe2 Tyr4 Ala10] (Ac-CSFPYRCLHQDAC-NH2; linker 1-7-13 via TBMB) : is its Ki strictly below 10 nM? 0.0

Record CC(=O)N[C@H]1CSCc2cc3cc(c2)CSC[C@H](NC(=O)[C@H](CCCNC(=N)N)NC(=O)[C@H](Cc2ccc(O)cc2)NC(=O)[C@@H]2CCCN2C(=O)[C@H](Cc2ccccc2)NC(=O)[C@H](CO)NC1=O)C(=O)N[C@@H](C)C(=O)N[C@@H](Cc1c[nH]cn1)C(=O)N[C@@H](CCC(N)=O)C(=O)N[C@@H](CC(=O)O)C(=O)N[C@@H](CC(C)C)C(=O)N[C@H](C(N)=O)CSC3 [Ac-(06-34-18) Phe2 Tyr4 Ala6] (Ac-CSFPYRCAHQDLC-NH2; linker 1-7-13 via TBMB) : is its Ki strictly below 10 nM? 1.0

Record CC(=O)N[C@H]1CSCc2cc3cc(c2)CSC[C@H](NC(=O)[C@H](CCCNC(=N)N)NC(=O)[C@H](Cc2ccc(O)cc2)NC(=O)[C@@H]2CCCN2C(=O)[C@H](Cc2ccccc2)NC(=O)[C@H](CO)NC1=O)C(=O)N[C@@H](CC(C)C)C(=O)N[C@@H](C)C(=O)N[C@@H](CCC(N)=O)C(=O)N[C@@H](CC(=O)O)C(=O)N[C@@H](CC(C)C)C(=O)N[C@H](C(N)=O)CSC3 [Ac-(06-34-18) Phe2 Tyr4 Ala7] (Ac-CSFPYRCLAQDLC-NH2; linker 1-7-13 via TBMB) : is its Ki strictly below 10 nM? 0.0

Values from patent US10118947B2
